Where do the numbers come from? From the supplement of paper PMC10307832.

I'd be grateful if you could share measured relative viability for these entries.
Test system: NCI-H2347
Test: relative viability (nuclei count vs DMSO), 5 days (fraction); higher = more cells survive
Conditions: first compound 0.04 µM
Give the figure only, with no unit attached.

Given the entry C[C@@H]1CN(CC(=O)Nc2ccc3c(c2)Cc2cccc(-c4cc(=O)cc(N5CCOCC5)o4)c2S3)C[C@H](C)O1 + Cc1cc(Nc2cc(N3CCN(C)CC3)nc(Sc3ccc(NC(=O)C4CC4)cc3)n2)n[nH]1 [Tozasertib] (partner 0.1 µM) , report its measured relative viability.
0.598

Given the entry C[C@@H]1CN(CC(=O)Nc2ccc3c(c2)Cc2cccc(-c4cc(=O)cc(N5CCOCC5)o4)c2S3)C[C@H](C)O1 + N=C(N)NC(=N)NCCc1ccccc1 [Phenformin] (partner 250 µM) , report its measured relative viability.
0.412

Given the entry Clc1ccc(Nc2nnc(Cc3ccncc3)c3ccccc23)cc1 [Vatalanib] + O=C(c1cc(Cc2n[nH]c(=O)c3ccccc23)ccc1F)N1CCN(C(=O)C2CC2)CC1 [Olaparib] (partner 8 µM) , report its measured relative viability.
0.647

Given the entry C[C@@H]1CN(CC(=O)Nc2ccc3c(c2)Cc2cccc(-c4cc(=O)cc(N5CCOCC5)o4)c2S3)C[C@H](C)O1 + O=C(c1cc(Cc2n[nH]c(=O)c3ccccc23)ccc1F)N1CCN(C(=O)C2CC2)CC1 [Olaparib] (partner 8 µM) , report its measured relative viability.
0.636

Given the entry C[C@@H]1CN(CC(=O)Nc2ccc3c(c2)Cc2cccc(-c4cc(=O)cc(N5CCOCC5)o4)c2S3)C[C@H](C)O1 + COc1cc2c(Oc3ccc(NC(=O)C4(C(=O)Nc5ccc(F)cc5)CC4)cc3F)ccnc2cc1OCCCN1CCOCC1 [Foretinib] (partner 0.25 µM) , report its measured relative viability.
0.758

Given the entry C[C@@H]1CN(CC(=O)Nc2ccc3c(c2)Cc2cccc(-c4cc(=O)cc(N5CCOCC5)o4)c2S3)C[C@H](C)O1 + CC(=O)Nc1cccc(-n2c(=O)n(C3CC3)c(=O)c3c(Nc4ccc(I)cc4F)n(C)c(=O)c(C)c32)c1 [Trametinib] (partner 0.02 µM) , report its measured relative viability.
0.273

Given the entry Clc1ccc(Nc2nnc(Cc3ccncc3)c3ccccc23)cc1 [Vatalanib] + Cc1cc(Nc2cc(N3CCN(C)CC3)nc(Sc3ccc(NC(=O)C4CC4)cc3)n2)n[nH]1 [Tozasertib] (partner 0.1 µM) , report its measured relative viability.
0.462

Given the entry COc1cc(N2CCC(C(N)=O)CC2)ccc1Nc1nc(N)c(Cl)c(Nc2ccccc2S(=O)(=O)C(C)C)n1 [HG-5-88-01] + CC(=O)Nc1cccc(-n2c(=O)n(C3CC3)c(=O)c3c(Nc4ccc(I)cc4F)n(C)c(=O)c(C)c32)c1 [Trametinib] (partner 0.02 µM) , report its measured relative viability.
0.324

Given the entry COc1cc(N2CCC(C(N)=O)CC2)ccc1Nc1nc(N)c(Cl)c(Nc2ccccc2S(=O)(=O)C(C)C)n1 [HG-5-88-01] + COc1cc2c(Oc3ccc(NC(=O)C4(C(=O)Nc5ccc(F)cc5)CC4)cc3F)ccnc2cc1OCCCN1CCOCC1 [Foretinib] (partner 0.25 µM) , report its measured relative viability.
0.845

Given the entry C[C@@H]1CN(CC(=O)Nc2ccc3c(c2)Cc2cccc(-c4cc(=O)cc(N5CCOCC5)o4)c2S3)C[C@H](C)O1 + C[C@@H](Oc1cc(-c2cnn(C3CCNCC3)c2)cnc1N)c1c(Cl)ccc(F)c1Cl [Crizotinib] (partner 1 µM) , report its measured relative viability.
0.784

Given the entry Clc1ccc(Nc2nnc(Cc3ccncc3)c3ccccc23)cc1 [Vatalanib] + Cc1nc(NC(=O)N2CCC[C@H]2C(N)=O)sc1-c1ccnc(C(C)(C)C(F)(F)F)c1 [Alpelisib] (partner 2 µM) , report its measured relative viability.
1.05

Given the entry COc1cc(N2CCC(C(N)=O)CC2)ccc1Nc1nc(N)c(Cl)c(Nc2ccccc2S(=O)(=O)C(C)C)n1 [HG-5-88-01] + CC(=O)c1c(C)c2cnc(Nc3ccc(N4CCNCC4)cn3)nc2n(C2CCCC2)c1=O [Palbociclib] (partner 0.5 µM) , report its measured relative viability.
0.439

Given the entry C[C@@H]1CN(CC(=O)Nc2ccc3c(c2)Cc2cccc(-c4cc(=O)cc(N5CCOCC5)o4)c2S3)C[C@H](C)O1 + CCNC(=O)c1noc(-c2cc(C(C)C)c(O)cc2O)c1-c1ccc(CN2CCOCC2)cc1 [Luminespib] (partner 0.01 µM) , report its measured relative viability.
0.926

Given the entry COc1cc(N2CCC(C(N)=O)CC2)ccc1Nc1nc(N)c(Cl)c(Nc2ccccc2S(=O)(=O)C(C)C)n1 [HG-5-88-01] + Cc1cc(Nc2cc(N3CCN(C)CC3)nc(Sc3ccc(NC(=O)C4CC4)cc3)n2)n[nH]1 [Tozasertib] (partner 0.1 µM) , report its measured relative viability.
0.638
